The compounds listed here are annotated with their IC50.
- measured_target: DNA dC->dU-editing enzyme APOBEC-3G (Homo sapiens)
- Sequence (Q9HC16 whole entry): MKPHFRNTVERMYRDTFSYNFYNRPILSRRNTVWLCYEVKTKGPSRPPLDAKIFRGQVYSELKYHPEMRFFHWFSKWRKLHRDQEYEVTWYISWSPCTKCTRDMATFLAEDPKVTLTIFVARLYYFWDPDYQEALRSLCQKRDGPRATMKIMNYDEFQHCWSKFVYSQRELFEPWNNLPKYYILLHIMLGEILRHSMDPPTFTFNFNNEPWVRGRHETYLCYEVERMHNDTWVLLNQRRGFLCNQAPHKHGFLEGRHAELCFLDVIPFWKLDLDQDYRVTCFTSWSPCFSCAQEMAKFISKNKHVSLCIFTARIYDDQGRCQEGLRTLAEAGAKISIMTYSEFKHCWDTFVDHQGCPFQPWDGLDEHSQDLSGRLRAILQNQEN
- assay_notes: Dose Response confirmation of small molecule APOBEC3G DNA Deaminase Inhibitors via a fluorescence-based single-stranded DNA deaminase assay. [Related pubchem assays (depositor defined):AID493012, AID493028]
- Type: functional
The source made the active and inactive calls.

{"compound": "Cc1nc([N+](=O)[O-])nn1C12CC3CC(CC(Br)(C3)C1)C2", "IC50": "49.6 µM (active)"}
{"compound": "O=C(O)c1cccc(-n2sc3ccccc3c2=O)c1", "IC50": "4.85 µM (active)"}
{"compound": "O=C(Cn1sc2ccccc2c1=O)NC12CC3CC(CC(C3)C1)C2", "IC50": "6.94 µM (active)"}
{"compound": "CCOc1ccc(C(=S)NC2CCCCC2)cc1OCC", "IC50": "55.7 µM (active)"}
{"compound": "O=c1c(O)c(-c2cc(O)c(O)c(O)c2)oc2cc(O)cc(O)c12 [MYRICETIN]", "IC50": "2.39 µM (active)"}

* * *

Recorded AC50 values (Cytochrome P450 3A4 (Homo sapiens, UniProt P08684)) are given below.
readout_label: AC50

{"line_notation": "Cc1nc2cnc(Nc3ccccc3)nc2n(CCc2ccccc2)c1=O", "observed_result": "10 µM (inconclusive)"}
{"line_notation": "CC[C@@H](c1ccccc1)n1c(=O)n2n(c1=O)[C@H]1[C@H](O)[C@H]3O[C@@H]3/C(=N/OCc3ccccc3)[C@@H]1CC2", "observed_result": "5.01 µM (inconclusive)"}
{"line_notation": "O=c1c(CCc2ccccc2)nc2cnc(Oc3ccccc3)nc2n1C1CC1", "observed_result": "15.8 µM (inconclusive)"}
{"line_notation": "Cn1cc(-c2nc3cnc(Oc4ccccc4)nc3n(C3CC3)c2=O)c2ccccc21", "observed_result": "25.1 µM (inconclusive)"}
{"line_notation": "CC(C)(C)c1nc(SCC(=O)Nc2ccc(N3CCOCC3)cc2)c2ccccc2n1", "observed_result": "1 µM (inconclusive)"}
{"line_notation": "O=C1CC(Nc2ccccc2)=NN1c1ccccc1", "observed_result": "28.2 µM (inconclusive)"}
{"line_notation": "O=S(=O)(c1ccccc1)N1CCC2(CCN(c3ccc(-c4ccccc4)cc3)CC2)CC1", "observed_result": "20 µM (inconclusive)"}
{"line_notation": "CC(C)NC(=O)N1CC2(CCN(C(=O)c3ccncc3)CC2)C1", "observed_result": "0.0794 µM (inconclusive)"}
{"line_notation": "O=c1c(O)c(-c2cc(O)c(O)c(O)c2)oc2cc(O)cc(O)c12", "observed_result": "3.98 µM (inconclusive)"}
{"line_notation": "C/C(=N\\NC(=O)c1ccc(Cl)cc1)c1ccc(Br)s1", "observed_result": "14.1 µM (inconclusive)"}

* * *

- measured_target: Bcl-2-related protein A1 (Mus musculus);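 further: confirmatory dose–response counterscreen on Bfl-1, used to check hits from a UBC13 polyubiquitin inhibitor campaign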
- Sequence (Q07440 whole entry): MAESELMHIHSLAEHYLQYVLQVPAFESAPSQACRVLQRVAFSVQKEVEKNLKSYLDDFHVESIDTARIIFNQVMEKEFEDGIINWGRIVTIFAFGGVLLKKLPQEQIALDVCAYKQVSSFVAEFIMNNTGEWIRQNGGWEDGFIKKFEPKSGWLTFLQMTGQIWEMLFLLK
- Assay type: functional
Activity calls are given as the source filed them.
Outcomes: active, inactive

{"compound": "CC(=O)N1NC(=C2C(=O)N(C)C(=O)N(C)C2=O)CC1c1ccccc1 (configuration not stated)", "classification": "inactive"}
{"compound": "OCCN1CCN(CCCN2c3ccccc3Sc3ccc(Cl)cc32)CC1 [PERPHENAZINE]", "classification": "inactive"}
{"compound": "NCCCn1c(C(=O)c2cc(Cl)c(N)c(Cl)c2)c2ccc(C(F)(F)F)cc2[n+]1[O-]", "classification": "inactive"}
{"compound": "O=C(CSc1nc2ccsc2c(=O)n1Cc1ccccc1)NCc1ccco1", "classification": "inactive"}
{"compound": "CCCCCCCCOC(=O)c1c(CSC(=N)N)n(C)c2cc(Br)c(OC(C)=O)cc12", "classification": "inactive"}
{"compound": "N=C(N)N/N=C/c1ccc(OCc2ccc(Cl)cc2Cl)cc1", "classification": "active"}
{"compound": "[H]/N=C(\\N/C(=N/[H])NCCCCCCNC(=N)NC(=N)Nc1ccc(Cl)cc1)Nc1ccc(Cl)cc1 [CHLORHEXIDINE]", "classification": "inactive"}
